B1: PTPRD (parent)
chain: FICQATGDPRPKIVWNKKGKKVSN

Variants of: B1
Experiment: protein stability index of a GFP-peptide fusion (GPS, HEK-293T) (PSI 1-6); higher = more stable;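 note: lentivirally expressed fusions sorted by FACS into six bins by GFP to DsRed ratio, PSI derived from sequencing read proportions per bin multiplied by bin number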
Conditions: c terminus: a fixed tail appended
QUANTITY MEASURED: protein stability index
Form field (numeric): enter value without unit.

1. FICQATRDPRPKIVWNKKGKKVSN [G7R] : 1.92
2. FICQATGDPRPKIVWNKKGKKVSE [N24E] : 2.37
3. FICQATGDPSPKIVWNKKGKKVSN [R10S] : 1.81

// moving on: another record for protein stability index
Noted for FICQATTDPRPKIVWNKKGKKVSN [G7T] : its protein stability index reads 2.01
